- experiment: In vitro stability, half-life in human plasma
- Type: in vitro ADME
- run_conditions: 90% human plasma, 37° C., RP-HPLC; read-out: t½ (hours) in human plasma (converted)
*1 amine or outer side, *2 acyl side, *3 side chain or, on linkers, in order; H or OH if unused. Where a SMILES comes first, the peptide text is derived from it. [ ]: non-standard residue; d: D form. The star is where a group is joined. Phe(2,4,6-Me3) = Cc1cc(C)c(C[C@H](N)C(=O)O)c(C)c1; X1 = Cc1cc(C)c(CC(N[*:1])C(=O)[*:2])c(C)c1; pGlu = O=C1CC[C@@H](C(=O)O)N1; Octanoyl = CCCCCCCC(=O)*
Strictly below 0.2 h in half-life at 0.6 mg/mL: y. Otherwise: n.

Query: # TODO verify half-life at 0.6 mg/mL < 0.2 h strictly for this compound: CSCC[C@H](NC(=O)[C@H](CO)NC(=O)[C@H](CC(N)=O)NC(=O)[C@H](CO)NC(=O)[C@H](CO)NC(=O)[C@H](CC(=O)O)NC(=O)[C@H](CCCNC(=N)N)NC(=O)[C@H](CCCCN)NC(=O)[C@@H]1CCC(=O)N1)C(=O)N[C@@H](CC(=O)O)C(=O)N[C@@H](CC(C)C)C(=O)N1CCC[C@H]1C(=O)N[C@@H](CCC(=O)O)C(=O)N[C@@H](Cc1c(C)cc(C)cc1C)C(=O)N[C@@H](CCCCN)C(N)=O [SEQ ID NO: 7-NH2] ([pGlu]KRDSSNSMDLPE[Phe(2,4,6-Me3)]K-NH2)
Result: n

Query: hey, is half-life at 0.6 mg/mL for Cc1cc(C)c(C[C@H](NC(=O)[C@H](CCC(=O)O)NC(=O)[C@@H]2CCCN2C(=O)[C@H](CC(C)C)NC(=O)[C@H](CC(=O)O)NC(=O)[C@H](CS)NC(=O)[C@H](CO)NC(=O)[C@H](CC(N)=O)NC(=O)[C@H](CO)NC(=O)[C@H](CO)NC(=O)[C@H](CC(=O)O)NC(=O)[C@H](CCCNC(=N)N)NC(=O)[C@H](CCCCN)NC(=O)[C@@H]2CCC(=O)N2)C(=O)N[C@@H](CCCCN)C(N)=O)c(C)c1 [SEQ ID NO: 6-NH2] ([pGlu]KRDSSNSCDLPE[Phe(2,4,6-Me3)]K-NH2) lower than 0.2 h or not?
Result: y

Query: In plain terms, does CC(=O)N[C@@H](CCCCN)C(=O)N[C@@H](CCCNC(=N)N)C(=O)N[C@@H](CC(=O)O)C(=O)N[C@@H](CO)C(=O)N[C@@H](CO)C(=O)N[C@@H](CC(N)=O)C(=O)N[C@@H](CO)C(=O)N[C@@H](CS)C(=O)N[C@@H](CC(=O)O)C(=O)N[C@@H](CC(C)C)C(=O)N1CCC[C@H]1C(=O)N[C@@H](CCC(=O)O)C(=O)NC(Cc1c(C)cc(C)cc1C)C(=O)N[C@@H](CCCCN)C(N)=O (some centres unmarked) [Ac-SEQ ID NO: 5-NH2] (Ac-KRDSSNSCDLPE[X1]K-NH2) come in under 0.2 h for half-life at 0.6 mg/mL?
Result: n

Query: Answer whether the compound CCCCCCCC(=O)N[C@@H](CCCCN)C(=O)N[C@@H](CCCNC(=N)N)C(=O)N[C@@H](CC(=O)O)C(=O)N[C@@H](CO)C(=O)N[C@@H](CO)C(=O)N[C@@H](CC(N)=O)C(=O)N[C@@H](CO)C(=O)N[C@@H](CCSC)C(=O)N[C@@H](CC(=O)O)C(=O)N[C@@H](CC(C)C)C(=O)N1CCC[C@H]1C(=O)N[C@@H](CCC(=O)O)C(=O)NC(Cc1c(C)cc(C)cc1C)C(=O)N[C@@H](CCCCN)C(N)=O (some centres unmarked) [Octanoyl-SEQ ID NO: 8-NH2] (Octanoyl-KRDSSNSMDLPE[X1]K-NH2) has half-life at 0.6 mg/mL strictly less than 0.2 h
Result: n

Query: Answer whether the compound CCCCCCCC(=O)N[C@@H](CCCCN)C(=O)N[C@@H](CCCNC(=N)N)C(=O)N[C@@H](CC(=O)O)C(=O)N[C@@H](CO)C(=O)N[C@@H](CO)C(=O)N[C@@H](CC(N)=O)C(=O)N[C@@H](CO)C(=O)N[C@@H](CS)C(=O)N[C@@H](CC(=O)O)C(=O)N[C@@H](CC(C)C)C(=O)N1CCC[C@H]1C(=O)N[C@@H](CCC(=O)O)C(=O)N[C@@H](Cc1c(C)cc(C)cc1C)C(=O)N[C@@H](CCCCN)C(N)=O [Octanoyl-SEQ ID NO: 5-NH2] (Octanoyl-KRDSSNSCDLPE[Phe(2,4,6-Me3)]K-NH2) has half-life at 0.6 mg/mL strictly less than 0.2 h
Result: y

====

Provide the reported % Invasiveness RH30 of each item.
- Test system: RH30 rhabdomyosarcoma cells
- experiment: Matrigel-coated transwell invasion assay, RH30 cells
- Format: cell-based
- run_conditions: 100 nM peptide; % invasive cells vs non-treated control
- Protocol: 10^5 RH30 or RD cells were plated in the upper chamber of a Matrigel-coated transwell (Corning) in 0.1 mL medium without FBS. Cells were previously incubated with different concentrations (0 nM, 100 nM, 200 nM, 500 nM and 1000 nM) of the peptides and peptide dimer for 48 hours, being also present in the medium during the cell invasion assay. In the lower chamber, 0.6 mL of medium with FBS was added. Cells were incubated at 37° ° C. for 24 hours. […]
*1 amine or outer side, *2 acyl side, *3 side chain or, on linkers, in order; H or OH if unused. Where a SMILES comes first, the peptide text is derived from it. [ ]: non-standard residue; d: D form. The star is where a group is joined. Phe(2,4,6-Me3) = Cc1cc(C)c(C[C@H](N)C(=O)O)c(C)c1; X1 = Cc1cc(C)c(CC(N[*:1])C(=O)[*:2])c(C)c1; pGlu = O=C1CC[C@@H](C(=O)O)N1; Octanoyl = CCCCCCCC(=O)*
Numbers only here, please. The scale is %.

Query: Supply % Invasiveness RH30 value. Item: Cc1cc(C)c(C[C@H](NC(=O)[C@H](CCC(=O)O)NC(=O)[C@@H]2CCCN2C(=O)[C@H](CC(C)C)NC(=O)[C@H](CC(=O)O)NC(=O)[C@H](CS)NC(=O)[C@H](CO)NC(=O)[C@H](CC(N)=O)NC(=O)[C@H](CO)NC(=O)[C@H](CO)NC(=O)[C@H](CC(=O)O)NC(=O)[C@H](CCCNC(=N)N)NC(=O)[C@H](CCCCN)NC(=O)[C@@H]2CCC(=O)N2)C(=O)N[C@@H](CCCCN)C(N)=O)c(C)c1 [SEQ ID NO: 6-NH2] ([pGlu]KRDSSNSCDLPE[Phe(2,4,6-Me3)]K-NH2)
Result: 54.67

Query: Read off the recorded % Invasiveness RH30 for CCCCCCCC(=O)N[C@@H](CCCCN)C(=O)N[C@@H](CCCNC(=N)N)C(=O)N[C@@H](CC(=O)O)C(=O)N[C@@H](CO)C(=O)N[C@@H](CO)C(=O)N[C@@H](CC(N)=O)C(=O)N[C@@H](CO)C(=O)N[C@@H](CS)C(=O)N[C@@H](CC(=O)O)C(=O)N[C@@H](CC(C)C)C(=O)N1CCC[C@H]1C(=O)N[C@@H](CCC(=O)O)C(=O)N[C@@H](Cc1c(C)cc(C)cc1C)C(=O)N[C@@H](CCCCN)C(N)=O [Octanoyl-SEQ ID NO: 5-NH2] (Octanoyl-KRDSSNSCDLPE[Phe(2,4,6-Me3)]K-NH2)
Result: 120.81

Query: Answer with the recorded % Invasiveness RH30 of CSCC[C@H](NC(=O)[C@H](CO)NC(=O)[C@H](CC(N)=O)NC(=O)[C@H](CO)NC(=O)[C@H](CO)NC(=O)[C@H](CC(=O)O)NC(=O)[C@H](CCCNC(=N)N)NC(=O)[C@H](CCCCN)NC(=O)[C@@H]1CCC(=O)N1)C(=O)N[C@@H](CC(=O)O)C(=O)N[C@@H](CC(C)C)C(=O)N1CCC[C@H]1C(=O)N[C@@H](CCC(=O)O)C(=O)N[C@@H](Cc1c(C)cc(C)cc1C)C(=O)N[C@@H](CCCCN)C(N)=O [SEQ ID NO: 7-NH2] ([pGlu]KRDSSNSMDLPE[Phe(2,4,6-Me3)]K-NH2) only.
Result: 121.38

Query: Specify reported % Invasiveness RH30 for the molecule shown: CCCCCCCC(=O)N[C@@H](CCCCN)C(=O)N[C@@H](CCCNC(=N)N)C(=O)N[C@@H](CC(=O)O)C(=O)N[C@@H](CO)C(=O)N[C@@H](CO)C(=O)N[C@@H](CC(N)=O)C(=O)N[C@@H](CO)C(=O)N[C@@H](CCSC)C(=O)N[C@@H](CC(=O)O)C(=O)N[C@@H](CC(C)C)C(=O)N1CCC[C@H]1C(=O)N[C@@H](CCC(=O)O)C(=O)NC(Cc1c(C)cc(C)cc1C)C(=O)N[C@@H](CCCCN)C(N)=O (some centres unmarked) [Octanoyl-SEQ ID NO: 8-NH2] (Octanoyl-KRDSSNSMDLPE[X1]K-NH2)
Result: 88.38
